tested on: Yap1 mRNA; experiment: Antisense inhibition of human Yap1 in A-431 cells by cEt gapmers, single dose (Example 3, RTS36584); format: cell-based; settings: Table 34; Yap1 mRNA as percent of untreated control; 3-10-3 cEt gapmers targeting SEQ ID NO: 1 and 2; single dose
Strand notation (5' to 3'): a small letter for the sugar, then the base; units joined by * are phosphorothioate-linked, units joined directly phosphodiester-linked; [ ] holds rarer units or linkages, { } end groups; capitals alone tell only the bases. k = constrained ethyl (cEt); [5mC] = 5-methylcytosine; d = 2'-deoxy (DNA)
REPORTED PROPERTY: YAP1 (% UTC)
# number only, unit % UTC dropped from output

Using known records, supply YAP1 (% UTC) for 1076404 (antisense kT*kA*kT*dT*dT*dA*dA*dG*dA*d[5mC]*d[5mC]*dT*dG*kG*kT*kG) [compound 1076404]
13

Give the reported value of YAP1 (% UTC) for this record: 1075636 (antisense k[5mC]*kA*kA*dT*dA*dA*dA*d[5mC]*dA*d[5mC]*d[5mC]*dT*d[5mC]*kG*k[5mC]*k[5mC]) [compound 1075636]
91

Give YAP1 (% UTC) for the following substance: 1076148 (kT*kA*kT*dT*dA*dA*d[5mC]*dT*d[5mC]*dA*d[5mC]*dG*dA*kA*kG*kA; antisense) [compound 1076148]
52

Consider the substance 958499 (ATTAGAGTATGTGGCA; 3-10-3 cEt gapmer, further chemistry not given here) [compound 958499] and give its recorded YAP1 (% UTC).
1

Supply recorded YAP1 (% UTC) for 1076340 (antisense kT*kA*kA*dT*dA*dT*d[5mC]*d[5mC]*dT*d[5mC]*dA*dT*d[5mC]*kA*kG*k[5mC]) [compound 1076340] here.
8

Consider the substance 1076180 (kA*kT*kA*dA*dT*dT*dA*dG*d[5mC]*d[5mC]*dA*dA*d[5mC]*k[5mC]*kA*k[5mC]; antisense) [compound 1076180] . State its measured YAP1 (% UTC).
42

Please look at this substance and report its YAP1 (% UTC): 1075028 (antisense kA*kA*kA*dA*dA*dT*d[5mC]*dA*dA*dG*d[5mC]*d[5mC]*d[5mC]*kT*k[5mC]*kG) [compound 1075028]
103

Tell me YAP1 (% UTC) reported for 1076372 (antisense k[5mC]*kA*kA*dT*dA*dA*dG*dA*dA*d[5mC]*dG*dA*dA*k[5mC]*k[5mC]*kT) [compound 1076372]
76

// fetch YAP1 (% UTC) given entry 1075860 (antisense kA*kA*k[5mC]*dT*dA*dT*dA*dA*dG*d[5mC]*dT*dA*dT*kG*kT*kG) [compound 1075860]
73

Annotate the substance 1075700 (kG*k[5mC]*k[5mC]*dA*dA*dA*dT*dA*dA*dG*dA*dG*dG*kT*kA*kG; antisense) [compound 1075700] with its measured YAP1 (% UTC).
22

Quick one: give measured YAP1 (% UTC) for 1075284 (antisense k[5mC]*kT*kT*dT*dT*d[5mC]*dG*dA*dA*dT*dA*dT*dA*kG*kA*kA) [compound 1075284]
76

State its YAP1 (% UTC): 1076244 (k[5mC]*kA*kA*dT*dT*dT*dG*dG*dG*dA*dT*dA*dT*kT*k[5mC]*kG; antisense) [compound 1076244]
14

----------
Hi there, I'd appreciate the recorded YAP1 (% UTC) for every entry that follows.
tested on: Yap1 mRNA; test: Antisense inhibition of human Yap1 in A-431 cells by cEt gapmers, single dose (Example 3, RTS36584); assay type: cell-based; details: Table 28; Yap1 mRNA as percent of untreated control; 3-10-3 cEt gapmers targeting SEQ ID NO.: 1, and 2
Strand notation (5' to 3'): a small letter for the sugar, then the base; units joined by * are phosphorothioate-linked, units joined directly phosphodiester-linked; [ ] holds rarer units or linkages, { } end groups; capitals alone tell only the bases. k = constrained ethyl (cEt); [5mC] = 5-methylcytosine; d = 2'-deoxy (DNA)
Supply the numeric figure in % UTC, leaving out any unit text.

Tell me its YAP1 (% UTC) given 1074606 (DNA kG*kG*kT*dA*dT*dA*dA*dT*d[5mC]*dA*dT*dG*dA*kT*kT*kA) [compound 1074606] as the entry.
4

Please give measured YAP1 (% UTC) of the following entry: 1074510 (kA*kT*kA*d[5mC]*dA*dT*dT*d[5mC]*d[5mC]*dA*d[5mC]*dT*dA*k[5mC]*k[5mC]*kA; antisense) [compound 1074510]
10

Check the records and state YAP1 (% UTC) for 1074158 (kG*kA*kG*d[5mC]*dG*dA*dG*dG*dG*d[5mC]*dT*dA*d[5mC]*kG*k[5mC]*k[5mC]; antisense) [compound 1074158]
72

----------
tested on: Yap1 mRNA; test: Dose-dependent inhibition of human Yap1 in A-431 cells (Example 8, 10,000 cells per well, RTS4814); type: cell-based; conditions: A-431 cells; Yap1 mRNA
Strand notation (5' to 3'): a small letter for the sugar, then the base; units joined by * are phosphorothioate-linked, units joined directly phosphodiester-linked; [ ] holds rarer units or linkages, { } end groups; capitals alone tell only the bases. k = constrained ethyl (cEt); [5mC] = 5-methylcytosine; d = 2'-deoxy (DNA)
REPORTED PROPERTY: IC50 (nM)
Give your result in nM as a bare value.

For the substance 1075893 (antisense k[5mC]*kG*kT*dG*dA*dA*dA*dA*dA*dG*dA*dT*dG*kT*kG*kG) [compound 1075893] , report IC50.
100

Return reported IC50. Input substance: 1074230 (antisense kA*kA*kG*dA*dA*dG*dA*d[5mC]*dT*dG*dT*d[5mC]*dG*kA*kA*kG) [compound 1074230]
50

Check the records and state IC50 for 1076022 (kT*kA*kA*dT*dT*dA*dG*dA*dT*dG*d[5mC]*dT*dG*kA*k[5mC]*kA; antisense) [compound 1076022]
40

Provide one value: measured IC50 of 1075093 (k[5mC]*kA*kA*dA*dG*dT*dA*dA*dG*dG*dT*dA*dT*kG*kA*kG; antisense) [compound 1075093]
100

Indicate its recorded IC50; the substance in question is 1074613 (DNA k[5mC]*kA*kT*dA*dG*d[5mC]*dT*dT*dA*dT*dA*dT*dT*kG*kA*kA; antisense) [compound 1074613]
40

Please give the documented IC50 of 1074452 (kT*kG*kA*d[5mC]*dT*dA*dA*dT*dG*dA*dT*dA*dG*k[5mC]*kA*k[5mC]; antisense) [compound 1074452]
100

----------
Tested on: Yap1 mRNA
Test: Dose-dependent inhibition of human Yap1 in SNU-449 cells (Example 9, RTS36584)
Format: cell-based
Details: 125.0 nM, free uptake, approximately 48 hours
Experimental: Modified oligonucleotides described in the studies above were tested at various doses in SNU-449 cells. […] After approximately 48 hours, Yap1 mRNA levels were measured as previously described using the Human Yap1 primer-probe set RTS36584. Yap1 mRNA levels were normalized to total RNA content, as measured by RIBOGREEN®. […] IC50s were calculated using a linear regression on a log/linear plot of the data in excel.
Strand notation (5' to 3'): a small letter for the sugar, then the base; units joined by * are phosphorothioate-linked, units joined directly phosphodiester-linked; [ ] holds rarer units or linkages, { } end groups; capitals alone tell only the bases. e = 2'-O-(2-methoxyethyl) (MOE); k = constrained ethyl (cEt); [5mC] = 5-methylcytosine; d = 2'-deoxy (DNA); m = 2'-O-methyl
REPORTED PROPERTY: % UTC (Yap1 mRNA)

Answer with the recorded % UTC (Yap1 mRNA) for the substance listed here: 1198543 (kA*kT*kT*dG*dT*d[5mC]*dT*d[5mC]*dA*dT*dG*d[5mC]*k[5mC]*kT*kT*eA; antisense) [compound 1198543]
42 % UTC

Note % UTC (Yap1 mRNA) for the substance shown: 1198554 (kT*kT*kA*dG*dA*dG*dT*dA*dT*dG*dT*dG*kG*k[5mC]*kA*eA; antisense) [compound 1198554]
46 % UTC

Let me know recorded % UTC (Yap1 mRNA) for 1200796 (kT*kT*kA*dG*dA*mG*dT*dA*dT*dG*dT*dG*dG*k[5mC]*kA*kA; antisense) [compound 1200796] , thanks.
47 % UTC

Respond only with % UTC (Yap1 mRNA) recorded for 1095481 (kT*kG*dA*dG*dG*dT*dA*dT*dA*dA*d[5mC]*dT*kG*eG*kG*e[5mC]) [compound 1095481]
47 % UTC

Please report the measured % UTC (Yap1 mRNA) for 1197309 (kG*kT*kA*dA*mU*dA*dT*dT*dG*d[5mC]*dA*dA*dT*k[5mC]*kT*kG; antisense) [compound 1197309]
63 % UTC

State its % UTC (Yap1 mRNA): 1198638 (kA*kG*dA*dG*dT*dA*dT*dG*dT*dG*dG*d[5mC]*kA*eA*kT*eA; antisense) [compound 1198638]
42 % UTC
